Data credit: patent US20240270826A1

target-under-test: T1, SARS-CoV-2 spike trimer S (Wuhan, SmT1) (SARS-CoV-2 Wuhan)
T1 construct: extracellular domain
measurement-description: SPR, antigen on chip
Here, each record is paired with measured pKd data.
// field semantics: pKd = negative decimal log of concentration (mol/L)

binder: NRCoV2-03 VHH (VHH) VHH: EVQLVSSGGGLVQAGGSLRLSCTASGITFSYYAMGWYRQAPGQPRELVASMSNMDSTIYADSVKGRFTISRDNAKTTIYLQMNNLKPEDTAVYFCNIYGPTYSTRRNEYWGQGTQVTVSS
readout: pKd
observed-measurement: 8.87

What measured pKd goes with NRCoV2-18 VHH (VHH) VHH: EVQLVESGGGLVQAGGSLRLSCVASGITISGYNMAWWRQTRGKQTERVAFINSGGSTTYSDSVKGRFTISRDNGKNTAYLQMNSLNAEDTADYFCSLHTSHDYWGQGTQVTVSS ? 9.42
